Listed below: growth values for each entry.
Tested on: SK-MEL-28 melanoma
Assay: NCI-60 one-dose screen, 48 h (100 = growth as untreated, 0 = no growth, -100 = all killed)
Conditions: 10 µM unless noted
This is part of a sample that, as a whole, favours compounds with a hit. Of some 83,000 tested, about 20% had one in any assay.
endpoint: growth (%)

molecule	endpoint	output_unit	recorded_measurement
CC1=NN(c2ccc(Cl)cc2)CC1(C)N=O (centres undefined)	growth	%	90.4
C=CC(C)(O)CC/C=C(\CO)C(=O)OC1C(C)OC(O[C@](C)(C=C)CC/C=C(\CO)C(=O)O[C@H]2C[C@@]3(C(=O)OC4OC(CO)C(O)C(O)C4OC4OC(C)C(OC5OC(CO)C(O)C5O)C(OC5OC(CO)C(O)C(O)C5O)C4O)C(CC2(C)C)C2=CCC4[C@@]5(C)CC[C@H](OC6OC(COC7OC(C)C(O)C(O)C7OC7OCC(O)C(O)C7O)C(O)C(O)C6NC(C)=O)C(C)(C)C5CC[C@@]4(C)[C@]2(C)C[C@H]3O)C(O)C1O (some centres undefined)	growth	%	-90.3
CCn1cc(C2=C(c3cn(C)c4ncccc34)C(=O)NC2=O)c2cccnc21	growth	%	90.7
CN1CCN(CCCOc2ccc3ncnc(Nc4ccc(Oc5cccc(F)c5)c(Cl)c4)c3c2)CC1	growth	%	-85.9
CCCCc1oc2ccccc2c1C(=O)c1ccc(O)cc1	growth	%	116
Cc1nc2sc(C(=O)Nc3cccc(Cl)c3)c(N)c2cc1C(O)c1ccccc1 (centres undefined)	growth	%	56
CCOC(=O)/C=C/c1c(C)[nH]c(=O)[nH]c1=O	growth	%	117
COC(=O)/C=C1/SC(=Nc2cccc(Cl)c2)N(CCc2c[nH]c3ccc(O)cc23)C1=O	growth	%	17.4
COc1ccccc1-n1c(-c2cc(O)ccc2C)cn2c3c(=O)[nH]c(=O)n(C)c3nc12	growth	%	96.9
COCC[C@H]1CCC/C=C/[C@@H]2C[C@H](O)C[C@H]2[C@H](O)/C=C/C(=O)O1	growth	%	0.149
COc1ncc2cc1NS(=O)(=O)c1cccc(c1)C(=O)NCC1=CC=C(S1)c1ncnc3c1SC2=C3C	growth	%	-62.2
O=C(CSc1nc2ccc([N+](=O)[O-])cc2[nH]1)Nc1ccc(Br)cc1	growth	%	54.5
COc1ccc(Cc2cnc(NC(=O)c3sc4ccccc4c3Cl)s2)cc1	growth	%	62.1
CN(C)c1ccc(C(=NO)c2ccc(N(C)C)cc2)cc1	growth	%	56.3
Cn1c(=O)c2c(nc(NC3=NS(=O)(=O)c4ccccc43)n2Cc2ccccc2)n(C)c1=O	growth	%	107
O=C1/C(=C/c2ccccc2[N+](=O)[O-])COc2ccc(O)cc21	growth	%	-5.79
O=C(/C=C/C12c3ccccc3C(c3ccccc31)C1C(=O)NC(=O)C12)c1ccccn1 (centres undefined)	growth	%	-33.2
COc1ccc(C2=C/C(=C\c3ccc(Cl)cc3)C(=O)N2/N=C/c2ccc(Cl)cc2)cc1	growth	%	101
COc1cc(C(=O)/C=C/c2c(-c3cccs3)nc3ccccn23)cc(OC)c1OC	growth	%	8.11
O=C(/C=C\c1ccco1)/C=C/c1ccco1	growth	%	110
CC1O[C@@H]2C[C@@](O)([C@H]1O)n1c3ccccc3c3c4c(c5c6ccccc6n2c5c31)C(=O)NC4=O (some centres undefined)	growth	%	69.1
N=c1sc(Cc2cc(Cl)ccc2Cl)cn1CC(=O)c1ccccc1	growth	%	58.5
Cc1ncc(C(=O)Nc2ccc(CN3CCN(C)CC3)c(C(F)(F)F)c2)cc1C#Cc1cnc(N)c2cnccc12	growth	%	-0.469
CCN(CCO)CC(C)Nc1ccc([N+](=O)[O-])c2sc3ccccc3c(=O)c12 (centres undefined)	growth	%	44.4
COc1ccc2c(O)c(/C=C3\N=Nc4ccccc43)oc2c1C[C@H]1CCNC[C@H]1F	growth	%	68.3
COc1ccc(/C(C)=C(\c2ccc(OCCN3CCCCCC3)cc2)c2ccc(OC(=O)c3ccccc3)cc2)cc1	growth	%	54.9
N#C/C(=C\c1ccc(-c2ccc(Cl)cc2)o1)c1ccc(Cl)cc1	growth	%	99.7
Cc1[nH]c(/C=C/C(=O)c2ccc(C(F)(F)F)c(F)c2)c(C)c1C(=O)NCC(C)C	growth	%	106
CCCCN1C(=O)/C(=c2\sc3n(c2=O)NC2C(N=3)N(CC)C(=O)N2CC)c2ccccc21 (centres undefined)	growth	%	65.6
CN1CCN(Cc2ccc(NC(=O)c3cncc(C#Cc4cncc5ncccc45)c3)cc2C(F)(F)F)CC1	growth	%	12.4
C=C(c1ccc(C(=O)O)cn1)c1cc2c(cc1C)C(C)(C)CCC2(C)C	growth	%	96.8
C#CC#CC#CC#CC#CC#CC#CC#CC[C@H]1OC[C@H](COC(=O)O[C@@H](C(=O)O[C@H]2C[C@@]3(O)[C@@H](OC(=O)c4ccccc4)[C@@H]4[C@]5(OC(C)=O)CO[C@@H]5C[C@H](O)[C@@]4(C)C(=O)[C@H](OC(C)=O)C(=C2C)C3(C)C)[C@@H](NC(=O)c2ccccc2)c2ccccc2)O1	growth	%	52.1
CN1CCN(C(=O)c2cc(-c3ccc4ncnc(N5CCc6cc(F)c(Cl)cc65)c4c3)cnc2N)CC1	growth	%	-0.0571
COc1cc2c(c(OC)c1OC)C(=O)N[C@@H]1[C@@H](O)[C@@H](O)[C@H](O)C[C@@H]21	growth	%	111

----------
Tested on: SF-295 CNS
Experiment: NCI-60 one-dose screen, 48 h
Details: 10 µM unless noted
The panel holds about 83,000 compounds, 20% with a hit somewhere; the sample as a whole holds those more often. Activity calls are given as the source filed them. Rule for the calls: active = growth percent below 10; inactive = the rest.
Labels: active, inactive

compound	assigned_category
C=CC(C)(O)CC/C=C(\CO)C(=O)OC1C(C)OC(O[C@](C)(C=C)CC/C=C(\CO)C(=O)O[C@H]2C[C@@]3(C(=O)OC4OC(CO)C(O)C(O)C4OC4OC(C)C(OC5OC(CO)C(O)C5O)C(OC5OC(CO)C(O)C(O)C5O)C4O)C(CC2(C)C)C2=CCC4[C@@]5(C)CC[C@H](OC6OC(COC7OC(C)C(O)C(O)C7OC7OCC(O)C(O)C7O)C(O)C(O)C6NC(C)=O)C(C)(C)C5CC[C@@]4(C)[C@]2(C)C[C@H]3O)C(O)C1O (stereo partly drawn)	active
Clc1nn2c(Cn3cnc4c(NCc5ccccc5)ncnc43)nnc2c2ccccc12	inactive
CN1CCN(Cc2ccc(NC(=O)c3cncc(C#Cc4cnn5ccccc45)c3)cc2C(F)(F)F)CC1	inactive
CCSC1=CC(=O)c2ccccc2C1=O	inactive
COc1ccc2[nH]cc(-c3nc(-c4cn(C)c5ccncc45)cs3)c2c1	inactive
N#Cc1c(-c2cccc([N+](=O)[O-])c2)cc(-c2ccc(Nc3nc(Nc4ccc(F)cc4)nc(Nc4ccc(F)cc4)n3)cc2)nc1N	inactive
Cn1cc(-c2nonc2-c2c[nH]c3ccccc23)c2ccccc21	active
CN(C)c1ccc(C(=NO)c2ccc(N(C)C)cc2)cc1	active

----------
System: MALME-3M melanoma
Experiment: NCI-60 one-dose screen, 48 h
Settings: 10 µM unless noted
Compounds without any hit were thinned out: in the full panel of roughly 83,000, 20% have a hit. Active and inactive are the calls of the source. The calls were made as follows: active = growth percent below 10; inactive = the rest.
Labels: active, inactive

compound	test_system	assigned_category
N#Cc1c(Nc2ccc(F)cc2)n[nH]c1-c1cccs1	MALME-3M melanoma	inactive
CCNc1nc(-c2ccc(F)cc2)c(C#N)c(=O)n1C	MALME-3M melanoma	inactive
CCN(CCO)CC(C)Nc1ccc([N+](=O)[O-])c2sc3ccccc3c(=O)c12 (configuration not stated)	MALME-3M melanoma	inactive
Nc1c(C(=O)Nc2cccc3ncccc23)sc2nc3c(cc12)C(=O)CCC3	MALME-3M melanoma	inactive
CC12CCC(/C(=C/NNc3ccc([N+](=O)[O-])cc3[N+](=O)[O-])C1=O)C2(C)C (configuration not stated)	MALME-3M melanoma	inactive
COc1cc(C2C3=C(COC3=O)N(CCO)c3cc4c(cc32)OCCO4)cc(OC)c1OC (configuration not stated)	MALME-3M melanoma	inactive
COc1ccc(/C(C)=C(\c2ccc(OCCN3CCCCCC3)cc2)c2ccc(OC(=O)c3ccccc3)cc2)cc1	MALME-3M melanoma	inactive
CCOC(=O)c1c(-c2ccccc2)n2c(=O)cc(C)c3c(O)c(O)cc1c32	MALME-3M melanoma	inactive
CN(Cc1cnc2nc(N)nc(N)c2n1)c1c(Cl)cc(C(=O)NC(CCC(=O)O)C(=O)O)cc1Cl (configuration not stated)	MALME-3M melanoma	inactive
CCCCn1sc(=O)n(Cc2ccc(CNC(=O)OCc3ccc4c(Cl)cc(Cl)c(O)c4n3)cc2)c1=O	MALME-3M melanoma	inactive
Cn1ncc2ccc(-c3nc(-c4ccccc4)[nH]c3-c3n[nH]c(=O)n3C3CC3)cc21	MALME-3M melanoma	inactive
CS(=O)(=O)Nc1cc(-c2ccc3ncnc(Nc4ccc5c(cnn5Cc5cccnc5)c4)c3c2)cnc1Cl	MALME-3M melanoma	active
Nc1nc(C(=O)N/N=C/c2ccc(N3CCOCC3)cc2)nn1-c1ccc(S(N)(=O)=O)cc1	MALME-3M melanoma	inactive
COc1cc2cc(Oc3ccc(NC(=O)Nc4ccccc4)cc3)c(C)nc2cc1OCCN1CCCCC1	MALME-3M melanoma	active
CCCCCCCCn1ccc2cc(NC(=O)Cn3cc(CN4CCCCCC4)nn3)ccc21	MALME-3M melanoma	active
O=C1Nc2ccc(F)cc2/C1=C\c1nc(-c2ccccc2F)n2ccccc12	MALME-3M melanoma	inactive
COc1ccc2c(c1)c(-c1ccc(-c3cn(C)c4ccc(OC)cc34)[nH]1)cn2C	MALME-3M melanoma	inactive
c1ccc(CNc2ccc3nc(CCC4CCCCC4)[nH]c3c2)cc1	MALME-3M melanoma	inactive
CCC/C(=N\NC(N)=O)C(OC)OC	MALME-3M melanoma	inactive
C[Se]C(=O)CC1=C2C=C(F)C=CC2/C(=C\c2ccc(S(C)=O)cc2)C1C (configuration not stated)	MALME-3M melanoma	active
N#Cc1nc2c(S(=O)(=O)c3ccccc3)c(N)n(Cc3cccnc3)c2nc1C#N	MALME-3M melanoma	inactive
COc1ccc(C(c2cc(OC)c(OC)c(OC)c2)N2CCN(Cc3ccccc3)CC2)cc1 (configuration not stated)	MALME-3M melanoma	inactive
CCCn1c(=S)sc2c1nc(C)n1c(Nc3ccccc3)nnc21	MALME-3M melanoma	inactive
COc1cc(-c2nc(SCCC(C)C)nc(N3CCOCC3)c2C#N)cc(OC)c1OC	MALME-3M melanoma	inactive
O=C(CCCCCCN1CC(=O)N2[C@@H](C3CCCCC3)c3[nH]c4ccccc4c3C[C@H]2C1=O)NO	MALME-3M melanoma	inactive
CO[C@H](C(=O)[C@@H](O)[C@@H](C)O)[C@@H]1Cc2cc3cc(O[C@H]4C[C@@H](O[C@H]5C[C@@H](O)[C@H](O)C(C)O5)[C@H](O)C(C)O4)c(C)c(O)c3c(O)c2C(=O)[C@H]1O[C@H]1C[C@@H](O[C@H]2C[C@@H](O[C@H]3C[C@@H](OC)[C@H](O)C(C)O3)[C@@H](O)C(C)O2)C(O)(O)C(C)O1 (some centres not stated)	MALME-3M melanoma	active
Cc1ccc2[nH]c(=O)c3c(c2c1)OC(N)=C(C#N)C31C(=O)c2cccc3cccc1c23 (configuration not stated)	MALME-3M melanoma	inactive
Cc1nc2ccccc2c(/C=C/c2ccc(C(F)(F)F)cc2)c1C(=O)/C=C/c1ccccc1	MALME-3M melanoma	active
O=C(/C=C/C12c3ccccc3C(c3ccccc31)C1C(=O)NC(=O)C12)c1ccc(F)cc1 (configuration not stated)	MALME-3M melanoma	inactive
CC1(C)CC2=C3C=C[C@@H]4[C@@]5(C)CC[C@H](O)C(C)(C)[C@@H]5CC[C@@]4(C)[C@]3(C)CC[C@@]2(C(=O)O)CC1=O	MALME-3M melanoma	inactive
COc1ccc2[nH]cc(-c3nc(-c4cn(C)c5ccncc45)cs3)c2c1	MALME-3M melanoma	inactive
C(/C=C/c1ccccc1)=Nc1ccc(CCc2ccc(N=C/C=C/c3ccccc3)cc2)cc1	MALME-3M melanoma	inactive
CCN1C(=O)N(CC)C2C1NN=c1s/c(=C\c3cc4ccccc4[nH]3)c(=O)n12 (configuration not stated)	MALME-3M melanoma	inactive
CCn1cc(C2=C(c3cn(C)c4ncccc34)C(=O)NC2=O)c2cccnc21	MALME-3M melanoma	inactive
C/C(=N\Nc1nc(C)cs1)c1cc2ccccc2o1	MALME-3M melanoma	inactive
Fc1ccc(COc2ccc(Nc3ncnc4sc5c(c34)CCCC5)cc2)cc1	MALME-3M melanoma	inactive
O=C(Cn1nnc2ccccc21)N/N=C/c1ccccc1F	MALME-3M melanoma	inactive
